So I've got a bunch of variants here, and I need their self-cleavage values.
B1: HDV Ribozyme (parent)
chain: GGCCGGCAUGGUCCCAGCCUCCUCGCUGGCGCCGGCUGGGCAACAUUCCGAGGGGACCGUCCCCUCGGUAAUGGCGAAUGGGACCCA

- Variants of: B1
- experiment-notes: self-cleavage, relative activity (ratio to wild type); higher = more cleavage; co-transcriptional

Quick note, self-cleavage for G17A G81A landed at 0.151

Quick note, self-cleavage for G2A U23C landed at 0.0511

Quick note, self-cleavage for G73C G74A landed at 0.422

Quick note, self-cleavage for A43G U69C landed at 0.302

Quick note, self-cleavage for U60C C84U landed at 0.918

Quick note, self-cleavage for G1U U79A landed at 0.178

Quick note, self-cleavage for C63G U65A landed at 0.415

Quick note, self-cleavage for A8C G81A landed at 0.151

Quick note, self-cleavage for U12C G55C landed at 0.447

Quick note, self-cleavage for C3U A56U landed at 0.861

Quick note, self-cleavage for C30G G59U landed at 0.0744

Quick note, self-cleavage for C4U U37A landed at 0

Quick note, self-cleavage for G40A C49G landed at 0.944

Quick note, self-cleavage for G6U G17C landed at 0.0554

Quick note, self-cleavage for G17U C41A landed at 0.104

Quick note, self-cleavage for G34C G81C landed at 0.115

Quick note, self-cleavage for U20C A78U landed at 0.111

Quick note, self-cleavage for C21A G53U landed at 0.135

Quick note, self-cleavage for U9A landed at 1.04

Quick note, self-cleavage for C36U G40C landed at 0.0959

Quick note, self-cleavage for C15A A83C landed at 0.196

Quick note, self-cleavage for A45U C84U landed at 0.623

Quick note, self-cleavage for A45G G52U landed at 0.731

Quick note, self-cleavage for C30A C66A landed at 0.582

Quick note, self-cleavage for C21G A71U landed at 0

Quick note, self-cleavage for G29C C32G landed at 0.0639

Quick note, self-cleavage for C26A C64G landed at 0.95

Quick note, self-cleavage for C4G C84A landed at 0.225

Quick note, self-cleavage for U27G U79A landed at 0.462

Quick note, self-cleavage for C13G A83C landed at 0.222

Quick note, self-cleavage for U37C A87U landed at 1.14

Quick note, self-cleavage for C64U G80C landed at 0.158

Quick note, self-cleavage for U72G landed at 0.662

Quick note, self-cleavage for G17A G35C landed at 0.156

Quick note, self-cleavage for C26G G53U landed at 0.812

Quick note, self-cleavage for G28C C41U landed at 0.0437

Quick note, self-cleavage for C19G C32G landed at 0.0462

Quick note, self-cleavage for G2C C58U landed at 0.0256

Quick note, self-cleavage for C7U U60C landed at 1.26

Quick note, self-cleavage for C18A U27G landed at 0.115

Quick note, self-cleavage for C41U G68U landed at 0.504

Quick note, self-cleavage for A16U C44U landed at 0.6

Quick note, self-cleavage for U12C G39U landed at 0.0723

Quick note, self-cleavage for C24G G54U landed at 0.183

Quick note, self-cleavage for U47G C66A landed at 0.969

Quick note, self-cleavage for A71U A87U landed at 0.897
